Values were extracted from patent US4209439A.

# TEST PROTOCOL: migration of stabiliser from PVC bottles into water at 50° C.
# Format: physicochemical
# MEASUREMENT CONTEXT: water 50° C.; 0.15 pct; 10 days
QUANTITY KIND: Migration (µg/L)
Give just the numeric value; µg/L need not be written.

- CHEMICAL STRING: "CCCCOC(=O)C1=C(C)NC(C)=C(C(=O)OCCCC)C1"
  QUANTITY KIND: "Migration"
  QUANTITATIVE RESULT: 15

Enquiry: Specify measured Migration for CCOC(=O)C1=C(C)NC(C)=C(C(=O)OCC)C1 .
Return: 20

Enquiry: Recall and state the measured Migration for COC(=O)C1=C(C)NC(C)=C(C(=O)OC)C1 .
Return: 15

----------
Measured Migration accompanies every entry in the list below.
# TEST PROTOCOL: migration of stabiliser from PVC bottles into water at 50° C.
# Assay type: physicochemical
# MEASUREMENT CONTEXT: water 50° C.; 0.30 pct; 10 days
# value in µg/L; strip the unit string

- CHEMICAL STRING: "COC(=O)C1=C(C)NC(C)=C(C(=O)OC)C1"
  QUANTITY KIND: "Migration"
  QUANTITATIVE RESULT: 70
- CHEMICAL STRING: "CCOC(=O)C1=C(C)NC(C)=C(C(=O)OCC)C1"
  QUANTITY KIND: "Migration"
  QUANTITATIVE RESULT: 90

Enquiry: State, in one line, measured Migration of CCCCOC(=O)C1=C(C)NC(C)=C(C(=O)OCCCC)C1
Return: 80

----------
Listing: Migration of selected compounds
# TEST PROTOCOL: migration of stabiliser from PVC bottles into water at 50° C.
# Assay type: physicochemical
# MEASUREMENT CONTEXT: water 50° C.; 0.30 pct; 1 month
# Procedure: 2.2--Study of the migration The migration or the extractability of the stabiliser from the PVC compound under the effect of various liquids (and particularly water) stored in a plastic container is of essential importance for the use of these stabilisers in the field of food packagings. […] The stabilisers are measured out in the form of their oxidation product (pyridine). The oxidation is made quantitative by adding a few drops of iodine to the solution. […]

- CHEMICAL STRING: "CCCCCCCCCCCCCCCCCCOC(=O)C1=C(C)NC(C)=C(C(=O)OCCCCCCCCCCCCCCCCCC)C1"
  Migration: "< 5 µg/L"
- CHEMICAL STRING: "CCCCCCCCCCCCOC(=O)C1=C(C)NC(C)=C(C(=O)OCCCCCCCCCCCC)C1"
  Migration: "< 5 µg/L"

Turning now to a further record.
Enquiry: Give the reported value of Migration for this record: CCCCCCCCCCCCCCOC(=O)C1=C(C)NC(C)=C(C(=O)OCCCCCCCCCCCCCC)C1
Return: < 5 µg/L

----------
# TEST PROTOCOL: migration of stabiliser from PVC bottles into water at 50° C.
# Type: physicochemical
# MEASUREMENT CONTEXT: water 50° C.; 0.15 pct; 20 days
QUANTITY KIND: Migration

- MOLECULE: "CCCCCCCCCCCCCCOC(=O)C1=C(C)NC(C)=C(C(=O)OCCCCCCCCCCCCCC)C1 [L.28590]"
  QUANTITY KIND: "Migration"
  RESULT: "< 5 µg/L"
- MOLECULE: "CCCCCCCCCCCCCCCCCCOC(=O)C1=C(C)NC(C)=C(C(=O)OCCCCCCCCCCCCCCCCCC)C1 [L.28599]"
  QUANTITY KIND: "Migration"
  RESULT: "< 5 µg/L"

Enquiry: Indicate the recorded Migration value for this molecule: CCCCCCCCCCCCOC(=O)C1=C(C)NC(C)=C(C(=O)OCCCCCCCCCCCC)C1 [L.28507]
Return: < 5 µg/L

----------
# TEST PROTOCOL: migration of stabiliser from PVC bottles into water at 50° C.
# Assay type: physicochemical
# MEASUREMENT CONTEXT: water 50° C.; 0.30 pct; 20 days
Below, each entry is listed with its recorded Migration.

Known results for compounds:
- CHEMICAL STRING: "CCCCCCCCCCCCOC(=O)C1=C(C)NC(C)=C(C(=O)OCCCCCCCCCCCC)C1"
  Migration: "< 5 µg/L"
- CHEMICAL STRING: "CCCCCCCCCCCCCCCCCCOC(=O)C1=C(C)NC(C)=C(C(=O)OCCCCCCCCCCCCCCCCCC)C1"
  Migration: "< 5 µg/L"

Proceed to the following item.
Enquiry: Answer with reported Migration of CCCCCCCCCCCCCCOC(=O)C1=C(C)NC(C)=C(C(=O)OCCCCCCCCCCCCCC)C1
Return: < 5 µg/L

----------
Catalogue of % of sublimed product values
# TEST PROTOCOL: sublimation at 160° C. for 6 hours under nitrogen
# Type: physicochemical
# MEASUREMENT CONTEXT: 160° C., 6 hours, nitrogen
Note: a bare number is incomplete; add the unit.

Example molecules with recorded % of sublimed product:
- CHEMICAL STRING: "CCCCCCCCCCCCCCCCCCOC(=O)C1=C(C)NC(C)=C(C(=O)OCCCCCCCCCCCCCCCCCC)C1"
  QUANTITY KIND: "% of sublimed product"
  RESULT: "1.2%"
- CHEMICAL STRING: "CCCCOC(=O)C1=C(C)NC(C)=C(C(=O)OCCCC)C1"
  QUANTITY KIND: "% of sublimed product"
  RESULT: "39.2%"
- CHEMICAL STRING: "CC1=C(C(=O)OC(C)C)CC(C(=O)OC(C)C)=C(C)N1"
  QUANTITY KIND: "% of sublimed product"
  RESULT: "98.1%"
- CHEMICAL STRING: "COC(=O)C1=C(C)NC(C)=C(C(=O)OC)C1"
  QUANTITY KIND: "% of sublimed product"
  RESULT: "34.2%"

Enquiry: Return the recorded % of sublimed product value; entry: CCCOC(=O)C1=C(C)NC(C)=C(C(=O)OCCC)C1
Return: 79.1%

----------
# TEST PROTOCOL: migration of stabiliser from PVC into solutions or solvents simulating foods at 50° C.
# Format: physicochemical
# MEASUREMENT CONTEXT: H2O/NaCl (97:3); 0.3; 1 month
Catalogue of Migration values

As a guide, the following entries are already answered.
- COMPOUND: "CCCCCCCCCCCCCCOC(=O)C1=C(C)NC(C)=C(C(=O)OCCCCCCCCCCCCCC)C1 [L.28590]"
  Migration: "< 5 µg/L"
- COMPOUND: "CCCCCCCCCCCCOC(=O)C1=C(C)NC(C)=C(C(=O)OCCCCCCCCCCCC)C1 [L.28507]"
  Migration: "< 5 µg/L"

Enquiry: Indicate the recorded Migration value for this compound: CCCCCCCCCCCCCCCCCCOC(=O)C1=C(C)NC(C)=C(C(=O)OCCCCCCCCCCCCCCCCCC)C1 [L.28599]
Return: < 5 µg/L

----------
Listed here are compounds together with their documented Migration.
# TEST PROTOCOL: migration of stabiliser from PVC bottles into water at 50° C.
# Type: physicochemical
# MEASUREMENT CONTEXT: water 50° C.; 0.15 pct; 1 month
# Protocol: 2.2--Study of the migration The migration or the extractability of the stabiliser from the PVC compound under the effect of various liquids (and particularly water) stored in a plastic container is of essential importance for the use of these stabilisers in the field of food packagings. […] The stabilisers are measured out in the form of their oxidation product (pyridine). The oxidation is made quantitative by adding a few drops of iodine to the solution. […]

Field: example entries. Status: answers known.
- CHEMICAL STRING: "CCCCCCCCCCCCCCOC(=O)C1=C(C)NC(C)=C(C(=O)OCCCCCCCCCCCCCC)C1"
  Migration: "< 5 µg/L"
- CHEMICAL STRING: "CCCCCCCCCCCCOC(=O)C1=C(C)NC(C)=C(C(=O)OCCCCCCCCCCCC)C1"
  Migration: "< 5 µg/L"

Next:
Enquiry: Input CCCCCCCCCCCCCCCCCCOC(=O)C1=C(C)NC(C)=C(C(=O)OCCCCCCCCCCCCCCCCCC)C1 , output reported Migration.
Return: < 5 µg/L

----------
# TEST PROTOCOL: migration of stabiliser from PVC into solutions or solvents simulating foods at 50° C.
# Type: physicochemical
# MEASUREMENT CONTEXT: H2O/NaCl (97:3); 0.3; 2 months
Recorded Migration, one value per entry.

In the examples that follow, each entry is paired with its recorded Migration.
- CHEMICAL STRING: "CCCCCCCCCCCCOC(=O)C1=C(C)NC(C)=C(C(=O)OCCCCCCCCCCCC)C1"
  Migration: "< 5 µg/L"
- CHEMICAL STRING: "CCCCCCCCCCCCCCCCCCOC(=O)C1=C(C)NC(C)=C(C(=O)OCCCCCCCCCCCCCCCCCC)C1"
  Migration: "< 5 µg/L"

Field: next compound
Enquiry: State its Migration: CCCCCCCCCCCCCCOC(=O)C1=C(C)NC(C)=C(C(=O)OCCCCCCCCCCCCCC)C1
Return: < 5 µg/L
